Enzyme Activity Endpoint Assay: scIgG reference
# Target or system: pooled human IgG
Property: Enzyme Activity Endpoint Assay: scIgG (ng/µL)

Protein	Recorded measurement
PRT-601 (protein) MANQEIRYSEETPSTVTSVWTKGVTPPTDFIQNEDVLHAPYIANQGWYDITKTFNGKDDLLCGAATAGNMLHWWFDQNKEQIKNYLKKHPEKQKINFNGEQMFDVKEAIDTKNHQLDSALFEYFKDKAFPYLSTKHLGVFPDHVIDMFINGYRLSLTNHGPTPVKRGTKDPRGGIFDAVFTRGDQSKLLTSRHDFKEKNLNEISDLIKKELTEGKALGLSHTYANVRINHVINLWGADFNANGNLEAIYVTDSDSNASIGMKKYFVGVNSAGKVAISAKEIKGDNIGAQVLGLFTLSTGQDSWNQTNLEHHHHHH	0
PRT-9 (protein) MANQEIRYSEETPYHVTSVWTKGVTPPANFTQGEDVFHAPYVANQGWYDITKTFNGKDDLLCGAATAGNMLHWWFDQNKEQIERYLKEHPEKQKINFNGEQMFDVKEAIDTKNSQLDSKLFEYFKEKAFPYLSTKHLGVFPDHVIDMFINGYRLSLTNHGPTPVKEGSKDPRGGIFDAVFTRGDQSKLLTSRHDFKEKTLKEISDLIKKELTEGKALALSHTYANVRINHVINLWGADFDSNGNLKAIYVTDSDSNASIGMKKYFVGVNSAGKVAISAKEIKEDNIGAQVLGLFTLSSGQDIWNQTN	32
PRT-23 (protein) MANQEIRYSEVTPYHVTSVWTKGVTPPANFTQGEDVFHAPYVANQGWYDITKTFNGKDDLLCGAATAGNMLHWWFDQNKDQIERYLKEHPEKQKINFNGEQMFDVKEAIDTKNSQTDSKLFEYFKEKAFPYLSTKHLGVFPDHVIDMFINGYRLSLTNHGPTPVKEGSKDPRGGIFDAVFTRGDQSKLLTSRHDFKEKNLKEISDLIKKELTEGKALGLSHTYANVRINHVINLWGADFDSNGNLEAIYVTDSDSNASIGMKKYFVGVNSAGKVAISAKEIKEDNIGAQVLGLFTLSTGQDIWNQTN	19
PRT-558 (protein) MANQEIRYSEETPSTITSIWTKGVTPPTQFIQNEDVLHAPYIANQGWYDITKTFNGKDDLLCGAATAGNMLHWWFDQNKTEIENYLTKHPEKQKINFNGEQMFDVKEAIDTKDSQTDSALFSYFKDKAFPYLSTKHLGVFPDHVIDMFINGYRLSLTNHGPTPVKRGTKDPRGGIFDAVFTRGDQTKLLTARHDFKEKTLNEISDLIKQELTEGKALGLSHTYANVRINHVINLWGADFNSEGNLEAIYVTDSDSNASIGMKKYYVGVNAAGKVAISAKEIEGDNIGAQVLGLFTLSTGQDIWQQTNLEHHHHHH	0
